tested on: A375; experiment: CellTiter-Glow Luminescent Cell Viability assay, A375 (melanoma); type: cell-based; conditions: Homo sapiens, A-375, 72 h, absolute IC50 (T/C=50%), read-out: IC50 against A375
Measurement Label: IC50 (µM)
Supply the numeric figure in µM, leaving out any unit text.

Look up IC50 for this molecule: COc1c(O)cc(O)c2c(=O)cc(-c3ccc(CCCCC[P+](c4ccccc4)(c4ccccc4)c4ccccc4)cc3)oc12.[Br-] [SND350]
8.9

====

Test system: breast and colon carcinomas, lymphoma and melanoma cancer cell growth
Experiment: CellTiter-Glow cell viability assay, cancer cell line panel (summary statement)
Assay type: cell-based
Details: lymphoma and melanoma cell lines of Table 2, read-out: IC50s, cancer cell growth inhibition
Procedure: Antitumor activity of the compounds and doxorubicin as a positive control was assessed by using the CellTiter-Glow® Luminescent Cell Viability assay (Promega #G7572) according to the manufacturer's instructions. The compounds were tested at 5 or 6 concentrations in half-log increments (highest concentration 30 μM or 100 μM) in duplicate or triplicate well conditions. […]
Measurement Label: IC50

Look up IC50 for this compound: COc1c(O)cc(O)c2c(=O)cc(-c3ccc(CCCCC[P+](c4ccccc4)(c4ccccc4)c4ccccc4)cc3)oc12.[Br-]
< 10 µM

====

assay: In vivo tolerability, maximum tolerated dose in nude mice; conditions: male, BALB/c Nude, mouse, in vivo, ip, single i.p. administration
Measurement Label: MTD
Could you give the number and then its unit, please?

Look up MTD for this molecule: COc1c(O)cc(O)c2c(=O)cc(-c3ccc(CCCCC[P+](c4ccccc4)(c4ccccc4)c4ccccc4)cc3)oc12.[Br-]
40 mg/kg

====

system: SK-Mel-5; assay: CellTiter-Glow Luminescent Cell Viability assay, SK-Mel-5 (melanoma); format: cell-based; settings: Homo sapiens, 72 h, absolute IC50 (T/C=50%), read-out: IC50 against SK-Mel-5
Measurement Label: IC50 (nM)
Supply the numeric figure in nM, leaving out any unit text.

Look up IC50 for this compound: COc1c(O)cc(O)c2c(=O)cc(-c3ccc(CCCCC[P+](c4ccccc4)(c4ccccc4)c4ccccc4)cc3)oc12.[Br-] [SND350]
2100

====

System: A2058
Experiment: CellTiter-Glow Luminescent Cell Viability assay, A2058 (melanoma)
Assay type: cell-based
Settings: Homo sapiens, 72 h, absolute IC50 (T/C=50%), read-out: IC50 against A2058
Experimental: Antitumor activity of the compounds and doxorubicin as a positive control was assessed by using the CellTiter-Glow® Luminescent Cell Viability assay (Promega #G7572) according to the manufacturer's instructions. The compounds were tested at 5 or 6 concentrations in half-log increments (highest concentration 30 μM or 100 μM) in duplicate or triplicate well conditions. […]
Measurement Label: IC50
Could you give the number and then its unit, please?

Look up IC50 for this compound: COc1c(O)cc(O)c2c(=O)cc(-c3ccc(CCCCC[P+](c4ccccc4)(c4ccccc4)c4ccccc4)cc3)oc12.[Br-]
6.5 µM

Origin of measurements: patent US20240101585A1
